Target: T1, recombinant human Tau monomer, 2N4R isoform (amino acids 2-441) (human, UniProt P10636-8 2-441)
T1 construct: range 2-441; N-terminal His-tag removed with TEV protease; also called monomeric Tau
T1 sequence (P10636 other isoform, or with tags, fused parts or gaps limits assumed): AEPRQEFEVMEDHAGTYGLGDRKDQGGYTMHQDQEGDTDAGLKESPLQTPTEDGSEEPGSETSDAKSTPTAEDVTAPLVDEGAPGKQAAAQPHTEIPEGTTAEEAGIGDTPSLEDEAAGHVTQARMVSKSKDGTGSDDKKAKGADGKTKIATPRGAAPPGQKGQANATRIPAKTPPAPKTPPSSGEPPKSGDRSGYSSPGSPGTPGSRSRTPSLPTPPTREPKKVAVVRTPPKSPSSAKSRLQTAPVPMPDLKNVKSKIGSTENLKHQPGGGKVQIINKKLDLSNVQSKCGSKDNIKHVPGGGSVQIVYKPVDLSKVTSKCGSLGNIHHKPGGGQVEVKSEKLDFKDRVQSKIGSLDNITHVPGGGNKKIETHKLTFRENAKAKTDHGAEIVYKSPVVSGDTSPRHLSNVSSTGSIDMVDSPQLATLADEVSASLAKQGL
Assay: SPR, captured IgG, Tau monomer analyte, 1:1 model; fit-quality column: Yes
The entries below are paired with their reported Kd.

- binder: "hu37D3.v28.A10 (antibody, V domains shown) VH: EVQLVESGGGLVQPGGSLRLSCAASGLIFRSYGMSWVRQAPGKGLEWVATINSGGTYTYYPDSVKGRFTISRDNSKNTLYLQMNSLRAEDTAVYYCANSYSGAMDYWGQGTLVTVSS VL: DDVMTQTPLSLPVTPGQPASISCRSSQSIVHSNGNTYFEWYLQKPGQSPQLLIYKVSNRFSGVPDRFSGSGSGTDFTLKISRVEAEDVGVYYCFQGSHVPWTFGQGTKVEIK"
  Kd, nM: 41.8
- binder: "hu37D3-H9.v31.2 (antibody, V domains shown) VH: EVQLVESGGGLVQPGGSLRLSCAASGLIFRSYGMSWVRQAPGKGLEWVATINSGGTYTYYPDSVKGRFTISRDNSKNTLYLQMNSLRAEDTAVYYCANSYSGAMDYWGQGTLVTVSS VL: DDVLTQTPLSLPVTPGQPASISCRSSQSIVHSNAVTYFEWYLQKPGQSPQLLIYKVSNRFSGVPDRFSGSGSGTDFTLKISRVEAEDVGVYYCFQGSLVPWTFGQGTKVEIK"
  Kd, nM: 10.6
- binder: "hu37D3.v28.52 (antibody, V domains shown) VH: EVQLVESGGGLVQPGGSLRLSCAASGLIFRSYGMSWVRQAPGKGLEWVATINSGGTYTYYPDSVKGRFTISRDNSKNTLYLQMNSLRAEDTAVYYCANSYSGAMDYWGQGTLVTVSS VL: EDVLTQTPLSLPVTPGQPASISCRSSQSIVHSKGNTYFEWYLQKPGQSPQLLIYKVSNRFSGVPDRFSGSGSGTDFTLKISRVEAEDVGVYYCFQGSLVPWTFGQGTKVEIK"
  Kd, nM: 17.6
